Test system: beagle dogs
assay comment: canine telemetry protocol for blood pressure reduction efficacy
Type: in vivo
condition label: male beagle dogs, 3 mg/kg oral gavage, 6-12 h
observation type: ΔSBP (systolic blood pressure, change from baseline) 6-12 h (mm Hg)
Write it as a number; the unit mm Hg goes unstated.

Problem: Provide only the value of recorded ΔSBP (systolic blood pressure, change from baseline) 6-12 h for `Cc1ncc2c(c1OC(=O)O[C@@H](C)CCCCO/N=[N+](\[O-])N(C)C(C)(C)C)CO[C@H]2c1ccc(Cl)cc1`
Solution: −7

Problem: Give the value of ΔSBP (systolic blood pressure, change from baseline) 6-12 h reported for the following: Cc1ncc2c(c1OC(=O)CCCC(C)O/N=[N+](\[O-])N(C)C(C)(C)C)CO[C@H]2c1ccc(Cl)cc1 (stereo partly drawn)
Solution: −8

Problem: Determine its reported ΔSBP (systolic blood pressure, change from baseline) 6-12 h: `Cc1ncc2c(c1OC(=O)[C@H]1CC[C@@H](O/N=[N+](\[O-])N(C)C(C)(C)C)CC1)CO[C@H]2c1ccc(Cl)cc1`
Solution: −2

Problem: Complete the entry with ΔSBP (systolic blood pressure, change from baseline) 6-12 h for `Cc1ncc2c(c1OC(=O)CCCCO/N=[N+](\[O-])N(C)C(C)(C)C)CO[C@H]2c1ccc(Cl)cc1`
Solution: −12

Problem: Provide ΔSBP (systolic blood pressure, change from baseline) 6-12 h value for the following compound: `Cc1ncc2c(c1OC(=O)[C@H]1CC[C@H](O/N=[N+](\[O-])N(C)C(C)(C)C)CC1)CO[C@H]2c1ccc(Cl)cc1`
Solution: −6

Problem: Report ΔSBP (systolic blood pressure, change from baseline) 6-12 h for Cc1ncc2c(c1OC(=O)CCC(C)CO/N=[N+](\[O-])N(C)C(C)(C)C)CO[C@H]2c1ccc(Cl)cc1 (stereo partly drawn)
Solution: −15
